# assay_target: CPP32 (Homo sapiens)
# Sequence (P42574 29-175 limits assumed, species assumed): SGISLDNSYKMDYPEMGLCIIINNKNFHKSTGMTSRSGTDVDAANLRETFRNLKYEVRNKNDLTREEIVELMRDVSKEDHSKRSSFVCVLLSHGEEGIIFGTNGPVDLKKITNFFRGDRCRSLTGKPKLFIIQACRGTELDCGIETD
# test_details: Fluorometric enzyme assay, CPP32
# test_settings: recombinant CPP32, 37° C., 30 minutes
Assign IC50 to each entry below.
Kindly provide the numeric value in nM only, without the unit symbol.

Looking for the measured IC50 of CC(C)[C@H](NC(=O)OCc1ccccc1)C(=O)NC(CC(=O)O)C(=O)CF (some centres unmarked) , can you help?
43

Query COC(=O)CC(NC(=O)C(NC(=O)OCc1ccccc1)C(C)C)C(=O)CF (centres unmarked) next
1100

---

# assay_target: Caspase-8 (Homo sapiens, UniProt Q14790)
# Sequence (Q14790 217-374 limits assumed): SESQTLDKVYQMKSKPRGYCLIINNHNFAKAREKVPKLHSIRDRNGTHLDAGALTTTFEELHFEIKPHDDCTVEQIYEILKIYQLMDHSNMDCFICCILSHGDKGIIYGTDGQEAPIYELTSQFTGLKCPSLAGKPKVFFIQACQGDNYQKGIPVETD
# test_details: Recombinant caspase assay with Ac-DEVD-AMC, caspase-8
# test_settings: 10 μM Ac-DEVD-AMC, 30 minutes at 37° C.
experimental_readout: IC50 (nM)
Kindly provide the numeric value in nM only, without the unit symbol.

Looking for the measured IC50 of CC(C)[C@H](NC(=O)OCc1ccccc1)C(=O)NC(CC(=O)O)C(=O)CF (stereo partly shown) , can you help?
7.2

---

# assay_target: UniProt P42574
# test_details: Recombinant caspase assay with Ac-DEVD-AMC, caspase-3
# Format: biochemical
# test_settings: 10 μM Ac-DEVD-AMC, 30 minutes at 37° C.
experimental_readout: pIC50
Formally, pIC50 is defined as -log10 of the concentration c, with c in mol/L.

Looking for the measured pIC50 of CC(C)[C@H](NC(=O)OCc1ccccc1)C(=O)NC(CC(=O)O)C(=O)CF (stereo partly drawn) [Cbz-Val-Asp-CH2F, Z-Val-Asp-fmk] , can you help?
7.70

---

# assay_target: Caspase-3 (Homo sapiens, UniProt P42574)
# test_details: Caspase-3 activity of the dipeptide inhibitors (Table III)
# Assay type: biochemical
Where a SMILES comes first, the peptide text is derived from it. The star is where a group is joined. Cbz = O=C(OCc1ccccc1)*; CH2F = FC*
# note: exactly 400 nM is not below, so it is Not fulfilled; use Fulfilled for IC50 strictly under it

Strictly below 400 nM in IC50? CC(C)[C@@H](C(=O)N[C@@H](CC(=O)O)C(=O)CF)N(C)C(=O)OCc1ccccc1 [Z-N-Me-L-Val-Asp-fmk, Z-N-Me-Val-Asp-fmk]
Not fulfilled

Query O=C(O)C[C@H](NC(=O)[C@H](Cc1ccc(O)cc1)NC(=O)OCc1ccccc1)C(=O)CF [Z-L-Tyr-Asp-fmk, Z-Tyr-Asp-fmk] (Cbz-Tyr-Asp-CH2F) next
Not fulfilled

Query O=C(O)CC(NC(=O)C(Cc1cnc[nH]1)NC(=O)OCc1ccccc1)C(=O)CF [Z-L-His-Asp-fmk, Z-His-Asp-fmk] (Cbz-His-Asp-CH2F; configuration not given here) next
Not fulfilled

Query CC(C)[C@H](NC(=O)OCc1ccccc1)C(=O)NC(CC(=O)O)C(=O)CF (stereo partly drawn) [Cbz-Val-Asp-CH2F, Z-Val-Asp-fmk] next
Fulfilled

---

# Test system: PARP cleavage in Jurkat cells
# test_details: Effect of Z-VD-fmk on PARP cleavage in antiFas-treated Jurkat cells (Example 24)
# Type: cell-based, human
# test_settings: antiFas-treated Jurkat cells; read-out: IC50, inhibition of PARP cleavage (whole-cell apoptosis model)
pIC50: −log10 of the molar value.
experimental_readout: pIC50

Looking for the measured pIC50 of CC(C)[C@H](NC(=O)OCc1ccccc1)C(=O)NC(CC(=O)O)C(=O)CF (stereo partly shown) , can you help?
> 7.30

---

# assay_target: ICE (Homo sapiens)
# Sequence (P29466 120-297 limits assumed): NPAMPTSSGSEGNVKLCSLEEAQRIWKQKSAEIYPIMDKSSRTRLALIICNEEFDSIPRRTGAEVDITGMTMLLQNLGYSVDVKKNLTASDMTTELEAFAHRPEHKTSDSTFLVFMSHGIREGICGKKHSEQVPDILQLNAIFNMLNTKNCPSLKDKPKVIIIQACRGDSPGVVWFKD
# test_details: Fluorometric enzyme assay, ICE
# test_settings: recombinant ICE
Assign IC50 to each entry below.
Kindly provide the numeric value in µM only, without the unit symbol.

Looking for the measured IC50 of CC(C)[C@H](NC(=O)OCc1ccccc1)C(=O)NC(CC(=O)O)C(=O)CF (some centres unmarked) , can you help?
0.02

Query COC(=O)CC(NC(=O)C(NC(=O)OCc1ccccc1)C(C)C)C(=O)CF (centres unmarked) next
0.9

---

# assay_target: Caspase-3 (Homo sapiens)
# test_details: Caspase-3 activity of the dipeptide inhibitors (Table III)
# Format: biochemical
The star is where a group is joined. Cbz = O=C(OCc1ccccc1)*; CH2F = FC*
experimental_readout: IC50 (µM)
Kindly provide the numeric value in µM only, without the unit symbol.

Looking for the measured IC50 of Cbz-Ala-Asp-CH2F [Z- -Ala-Asp-fmk] , can you help?
3.5

---

# assay_target: Cathepsin B (Homo sapiens)
experimental_readout: IC50

Short answer please: IC50, Cathepsin B (Homo sapiens), entry CC(C)[C@H](NC(=O)OCc1ccccc1)C(=O)NC(CC(=O)O)C(=O)CF (stereo partly shown)
> 10 µM

---

# assay_target: Caspase-7 (Homo sapiens)
# Sequence (P55210 24-198 limits assumed): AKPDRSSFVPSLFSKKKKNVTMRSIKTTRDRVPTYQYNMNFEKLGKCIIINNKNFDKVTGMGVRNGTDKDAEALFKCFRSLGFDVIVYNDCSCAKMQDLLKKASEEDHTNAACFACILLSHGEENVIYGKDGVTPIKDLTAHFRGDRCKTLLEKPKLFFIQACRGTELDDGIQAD
# test_details: Recombinant caspase assay with Ac-DEVD-AMC, caspase-7
# test_settings: 10 μM Ac-DEVD-AMC, 30 minutes at 37° C.
# Description: The inhibitory activity of Cbz-Val-Asp-CH2F in recombinant caspase 3, 6, 7 and 8 obtained from PharMington (a Becton division company, San Diego, Calif.) were measured using Ac-DEVD-AMC (SEQ ID NO:1). The amount of each enzyme per assay was as following: 1 ng caspase3, 15 ng caspase6, 2 ng caspase7 and 60 ng caspase8. […] The data was analyzed using GraphPrism software.
experimental_readout: IC50 (nM)
Kindly provide the numeric value in nM only, without the unit symbol.

Looking for the measured IC50 of CC(C)[C@H](NC(=O)OCc1ccccc1)C(=O)NC(CC(=O)O)C(=O)CF (stereo partly drawn) [Cbz-Val-Asp-CH2F, Z-Val-Asp-fmk] , can you help?
6.8
